test system: RKO control cells; settings: read-out: IC50 RKO control
Numbered stars: 1 amine (or outer) side, 2 acyl side, 3 side chain; on linkers, the order of the positions; unused ones are H or OH. Bridge positions count the residues as written; N and C are the ends. Square brackets hold non-standard residues; d marks the D form. Peptide text beside a SMILES is read from it. Adda = CO[C@@H](Cc1ccccc1)[C@@H](C)/C=C(C)/C=C/[C@H](N[*:1])[C@H](C)C(=O)[*:2]; dAsp(3S-Me) = C[C@H](C(=O)[*:3])[C@@H](N[*:1])C(=O)[*:2]; d(γGlu) = O=C(O)[C@@H](CCC(=O)[*:2])N[*:1]; NMeDha = C=C(NC)C(=O)O
IC50 overview
Measure Name: IC50

[
  {
    "Compound": "C=C1C(=O)N[C@H](C)C(=O)N[C@@H](CC(C)C)C(=O)N[C@@H](C(=O)O)[C@H](C)C(=O)N[C@@H](CCCNC(=N)N)C(=O)N[C@@H](/C=C/C(C)=C/[C@H](C)[C@H](Cc2ccccc2)OC)[C@H](C)C(=O)N[C@@H](C(=O)O)CCC(=O)N1C [compound 1, MC-LR, reference compound] (R[Adda][d(γGlu)][NMeDha][dA]L[dAsp(3S-Me)]-OH; lactam N-7)",
    "Result Value": "> 1000 nM"
  },
  {
    "Compound": "C/C=C1/NC(=O)CC[C@H](C(=O)O)NC(=O)[C@@H](C)[C@H](/C=C/C(C)=C/[C@H](C)[C@H](Cc2ccccc2)OC)NC(=O)[C@H](Cc2c[nH]c3ccccc23)NC(=O)C[C@H](C(=O)O)NC(=O)[C@H](CC(C)C)NC(=O)[C@@H](C)NC1=O [compound 9, [D-Asp^3,(E)-Dhb^7]-MC-LW]",
    "Result Value": "> 1000 nM"
  },
  {
    "Compound": "C=C1C(=O)N[C@H](C)C(=O)N[C@@H](Cc2ccc(O)cc2)C(=O)N[C@@H](C(=O)O)CC(=O)N[C@@H](CCCNC(=N)N)C(=O)N[C@@H](/C=C/C(C)=C/[C@H](C)[C@H](Cc2ccccc2)OC)[C@H](C)C(=O)N[C@@H](C(=O)O)CCC(=O)N1C [compound 14, [D-Asp^3]MC-YR]",
    "Result Value": "> 1000 nM"
  }
]

====

test system: OATP1B3-expressing HeLa cells; details: read-out: IC50 HeLa B3
Numbered stars: 1 amine (or outer) side, 2 acyl side, 3 side chain; on linkers, the order of the positions; unused ones are H or OH. Bridge positions count the residues as written; N and C are the ends. Square brackets hold non-standard residues; d marks the D form. Peptide text beside a SMILES is read from it. Adda = CO[C@@H](Cc1ccccc1)[C@@H](C)/C=C(C)/C=C/[C@H](N[*:1])[C@H](C)C(=O)[*:2]; dAsp(3S-Me) = C[C@H](C(=O)[*:3])[C@@H](N[*:1])C(=O)[*:2]; d(γGlu) = O=C(O)[C@@H](CCC(=O)[*:2])N[*:1]; NMeDha = C=C(NC)C(=O)O

[
  {
    "Compound": "C=C1C(=O)N[C@H](C)C(=O)N[C@@H](CC(C)C)C(=O)N[C@@H](C(=O)O)[C@H](C)C(=O)N[C@@H](CCCNC(=N)N)C(=O)N[C@@H](/C=C/C(C)=C/[C@H](C)[C@H](Cc2ccccc2)OC)[C@H](C)C(=O)N[C@@H](C(=O)O)CCC(=O)N1C [compound 1, MC-LR, reference compound] (R[Adda][d(γGlu)][NMeDha][dA]L[dAsp(3S-Me)]-OH; lactam N-7)",
    "Units": "nM",
    "Operator": "=",
    "IC50": 5.1
  },
  {
    "Compound": "CC=C1C(=O)N[C@@H](C(=O)O)[C@H](C)C(=O)N[C@@H](CCCNC(=N)N)C(=O)N[C@@H](/C=C/C(C)=C/[C@H](C)[C@H](Cc2ccccc2)OC)[C@H](C)C(=O)N[C@@H](C(=O)O)CCC(=O)N1C [compound 23, Nodularin]",
    "Units": "nM",
    "Operator": ">",
    "IC50": 100
  },
  {
    "Compound": "C=C1C(=O)N[C@H](C)C(=O)N[C@@H](CC(C)C)C(=O)N[C@@H](C(=O)O)[C@H](C)C(=O)N[C@@H](Cc2ccc(O)cc2)C(=O)N[C@@H](/C=C/C(C)=C/[C@H](C)[C@H](Cc2ccccc2)OC)[C@H](C)C(=O)N[C@@H](C(=O)O)CCC(=O)N1C [compound 5, MC-LY] (Y[Adda][d(γGlu)][NMeDha][dA]L[dAsp(3S-Me)]-OH; lactam N-7)",
    "Units": "nM",
    "Operator": "=",
    "IC50": 0.21
  },
  {
    "Compound": "C=C1C(=O)N[C@H](C)C(=O)N[C@@H](Cc2ccc(O)cc2)C(=O)N[C@@H](C(=O)O)[C@H](C)C(=O)N[C@@H](Cc2ccc(O)cc2)C(=O)N[C@@H](/C=C/C(C)=C/[C@H](C)[C@H](Cc2ccccc2)OC)[C@H](C)C(=O)N[C@@H](C(=O)O)CCC(=O)N1C [compound 17, MC-YY] (Y[Adda][d(γGlu)][NMeDha][dA]Y[dAsp(3S-Me)]-OH; lactam N-7)",
    "Units": "nM",
    "Operator": "=",
    "IC50": 0.8
  }
]

====

system: OATP1B1- and OATP1B3-expressing HeLa or RKO cell lines; conditions: human

[
  {
    "Compound": "CO[C@@H](Cc1ccccc1)[C@@H](C)/C=C(C)/C=C/[C@@H]1NC(=O)[C@H](CCCCNC(=N)N)NC(=O)C[C@H](C(=O)O)NC(=O)[C@H](Cc2ccc(O)cc2)NC(=O)[C@@H](C)NC(=O)[C@H](CO)N(C)C(=O)CC[C@H](C(=O)O)NC(=O)[C@H]1C [compound 21, [D-Asp^3,MSer^7]MC-YHar]",
    "Target Under Test": "OATP1B1- and OATP1B3-expressing HeLa or RKO cell lines",
    "IC50": "> 100 nM"
  }
]

====

test system: OATP1B3-expressing RKO cells
Measure Name: Ratio IC50 B1/B3 RKO

[
  {
    "Compound": "CO[C@@H](Cc1ccccc1)[C@@H](C)/C=C(C)/C=C/[C@@H]1NC(=O)[C@H](CCCCNC(=N)N)NC(=O)C[C@H](C(=O)O)NC(=O)[C@H](Cc2ccc(O)cc2)NC(=O)[C@@H](C)NC(=O)[C@H](CO)N(C)C(=O)CC[C@H](C(=O)O)NC(=O)[C@H]1C [compound 21, [D-Asp^3,MSer^7]MC-YHar]",
    "Result Value": 1.6
  },
  {
    "Compound": "C=C1C(=O)N[C@H](C)C(=O)N[C@@H](Cc2ccc(O)cc2)C(=O)N[C@@H](C(=O)O)[C@H](C)C(=O)N[C@@H](CCCNC(=N)N)C(=O)N[C@@H](/C=C/C(C)=C/[C@H](C)[C@H](Cc2ccccc2)OC)[C@H](C)C(=O)N[C@@H](C(=O)OC)CCC(=O)N1C [compound 22, [D-Glu(OMe)^6]MC-YR]",
    "Result Value": 2.6
  }
]

====

Items are presented alongside their recorded IC50.
system: OATP1B3-expressing HeLa cells; settings: human

[
  {
    "Compound": "C/C=C1/NC(=O)CC[C@H](C(=O)O)NC(=O)[C@@H](C)[C@H](/C=C/C(C)=C/[C@H](C)[C@H](Cc2ccccc2)OC)NC(=O)[C@H](CCc2ccc(O)cc2)NC(=O)C[C@H](C(=O)O)NC(=O)[C@H](CCc2ccc(O)cc2)NC(=O)[C@@H](C)NC1=O [compound 19, [D-Asp^3,(E)-Dhb^7]MC-HtyHty]",
    "Units": "nM",
    "IC50": 0.18
  },
  {
    "Compound": "C/C=C1/NC(=O)CC[C@H](C(=O)O)NC(=O)[C@@H](C)[C@H](/C=C/C(C)=C/[C@H](C)[C@H](Cc2ccccc2)OC)NC(=O)[C@H](Cc2ccc(O)cc2)NC(=O)C[C@H](C(=O)O)NC(=O)[C@H](CCc2ccc(O)cc2)NC(=O)[C@@H](C)NC1=O [compound 18, [D-Asp^3,(E)-Dhb^7]MC-HtyY]",
    "Units": "nM",
    "IC50": 0.078
  }
]

====

Measured IC50, listed per entry for reference.
test system: OATP1B1; test: in vitro; details: human

[
  {
    "Molecule": "C/C=C1/NC(=O)CC[C@H](C(=O)O)NC(=O)[C@@H](C)[C@H](/C=C/C(C)=C/[C@H](C)[C@H](Cc2ccccc2)OC)NC(=O)[C@H](Cc2ccc(O)cc2)NC(=O)C[C@H](C(=O)O)NC(=O)[C@H](CCc2ccc(O)cc2)NC(=O)[C@@H](C)NC1=O [compound 18, [D-Asp^3,(E)-Dhb^7]MC-HtyY]",
    "IC50, nM": 0.515
  },
  {
    "Molecule": "C/C=C1/NC(=O)CC[C@H](C(=O)O)NC(=O)[C@@H](C)[C@H](/C=C/C(C)=C/[C@H](C)[C@H](Cc2ccccc2)OC)NC(=O)[C@H](CCc2ccc(O)cc2)NC(=O)C[C@H](C(=O)O)NC(=O)[C@H](CCc2ccc(O)cc2)NC(=O)[C@@H](C)NC1=O [compound 19, [D-Asp^3,(E)-Dhb^7]MC-HtyHty]",
    "IC50, nM": 0.39
  }
]
